- tested target: Secreted mono- and diacylglycerol lipase LIP1 (Malassezia globosa (strain ATCC MYA-4612 / CBS 7966)(Dandruff-associated fungus)) (UniProt A8PUY1)
- experiment: Competitive inhibition of Malassezia globosa CBS 7966 LIP1 using pNPA substrate by Lineweaver-Burk plot method
The source made the active and inactive calls. No cut-off for these calls is given here.
readout type: inhibition

1) O=C(O)c1ccc(=S)n(CC(=O)c2ccccc2)c1 : Active
2) Cc1ccc(C(=O)Oc2ccc3ccc(O)cc3c2)cc1 : Active
3) O=C(NCCCCCCNC(=O)ON=C1CCCCC1)ON=C1CCCCC1 : Active

* * *

- tested target: Secreted mono- and diacylglycerol lipase LIP1 (Malassezia globosa (strain ATCC MYA-4612 / CBS 7966)(Dandruff-associated fungus))
- Sequence (A8PUY1 whole entry): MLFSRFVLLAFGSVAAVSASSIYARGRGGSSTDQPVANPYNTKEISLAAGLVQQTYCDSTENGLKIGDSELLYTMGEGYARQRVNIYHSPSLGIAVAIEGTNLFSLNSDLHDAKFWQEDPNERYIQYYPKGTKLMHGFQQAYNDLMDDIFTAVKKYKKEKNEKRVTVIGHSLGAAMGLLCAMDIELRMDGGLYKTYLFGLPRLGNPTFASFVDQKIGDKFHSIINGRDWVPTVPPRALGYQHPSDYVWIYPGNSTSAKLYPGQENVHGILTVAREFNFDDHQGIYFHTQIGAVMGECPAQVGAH
- experiment: Inhibition of Malassezia globosa CBS 7966 LIP1 using pNPC substrate
pIC50: −log10 of the molar value.
readout type: pIC50

1. O=C1c2ccccc2CN1CCSC(=S)N1CCCCCC1 : 4.61
2. O=C1c2ccccc2CN1CCSC(=S)N1CCCC1 : 4.64
3. O=C1c2ccccc2C(=O)N1CCSC(=S)N1CCCCCC1 : 4.20

* * *

- tested target: Secreted mono- and diacylglycerol lipase LIP1 (Malassezia globosa (strain ATCC MYA-4612 / CBS 7966)(Dandruff-associated fungus))
- experiment: Inhibition of Malassezia globosa CBS 7966 LIP1 using pNPC substrate
pIC50: −log10 of the molar value.
readout type: pIC50

1. O=C1c2ccccc2CN1CCSC(=S)N1CCOCC1 : < 3.70
2. O=C1c2ccccc2C(=O)N1CCSC(=S)N1CCCC1 : < 3.70
3. O=C1c2ccccc2C(=O)N1CCSC(=S)N1CCOCC1 : < 3.70
